- assay system: His-GlnR (UniProt O53830)
- Sequence: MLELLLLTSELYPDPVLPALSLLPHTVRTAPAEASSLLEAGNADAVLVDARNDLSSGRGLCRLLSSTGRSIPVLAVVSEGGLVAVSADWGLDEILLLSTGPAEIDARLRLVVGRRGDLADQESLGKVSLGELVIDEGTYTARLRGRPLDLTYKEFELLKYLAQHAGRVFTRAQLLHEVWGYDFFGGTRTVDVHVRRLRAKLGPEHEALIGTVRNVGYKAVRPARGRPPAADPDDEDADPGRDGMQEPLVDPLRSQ
- experiment description: EMSA
recorded metric: binding

seq	experimental result
CACAGACTCCATCTGTTGGGGGTTCAACGGGGATTCAACCGGACACTTAGCGCCACTATTGAATATGAATATCATTTGAACGAGAGGTTAACACAGCGTGACGACGGCCCAGGGCGGTGAGTTTGGTCACACGAGCGCTGGGCTCACCACCCCATGCTGGTGGGATTTAGC (double strand) [peak 13, Rv1386 (PE15) promoter region]	binds
CATGAGCTGATGAATGGAGTCCACTACCGGCCGGTGCGGCGACCAAGGATCTGTTTGCGACGGGATCTGTGCGACGTTGGCGGCAATCAGCTTGTTACAGCTGATAATCCGAGCGTGATCGCGACCTAACCGGCAGGCAACGCCGGCATGGTCCCCTGGCACGATGGGACTACTGTCACGCTTGCGCAAACGTGAGCCGATCAGCATCTACGACAAGATC (double strand) [peak 17, Rv1542c (glbN) promoter region]	binds
GTACGTCCACAATCGAAGGACGCGGAAGCACGGGGCCGCGACCACCGAGACCCGTGGCGGCCCATGGCCGCAAGGAGGCTCCTCGCGAGATTCGTCACGCGTTACCTGGATTTAACCTGCGCCCGTCCGAAGCGCCCGGCTTTTTCGTAGGCTTCGCTGCGGTTGGGGCCAGACAGCGCCGTGAAGCCCGGTGGGTGTGGCCGGCTGACGGGATGGT (double strand) [peak 18, Rv1548c (PPE22)/Rv1549 (fadD11) promoter region]	binds
